Hello, the source for this data is paper PMC7826789, in case you need it.

Would you kindly list Percent Control for each of these compounds?
Test system: KIT;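 further: KINOMEscan scanMAX binding as percent activity remaining versus control; lower means stronger binding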
Experimental context: Compound Concentration (nM):1000
Answers are plain numbers, in %.

Recorded results for 3 compounds are shown here.
compound="COc1ccccc1-c1cc(/C=C2\\C(=O)Nc3ncc(Br)cc32)cc(Br)c1O [GW442130X]" assayed_target=KIT result_value=70
compound="Nc1ncnc2occ(-c3ccc(NC(=O)Nc4cc(C(F)(F)F)ccc4F)cc3)c12 [GW770249X]" assayed_target=KIT result_value=0
compound="Cc1cc(O)cc(C)c1/C=C/c1cncc(C(N)=O)c1 [GW435821X]" assayed_target=KIT result_value=2.1

Count: 3. Required value per item: Percent Control.
1. NS(=O)(=O)c1ccc(N/N=C2\C(=O)Nc3ccc(Cl)cc32)cc1 [GW280670X]
2. CCS(=O)(=O)c1ccc(OC)c(Nc2ncc(-c3cccc(F)c3)o2)c1 [GW621970X]
3. C/C(Nc1ccc(S(N)(=O)=O)cc1)=C1/C(=O)Nc2ccccc21 [GW335962X]

[90, 13, 99]
